- Test system: TK-10 renal
- assay explanation: NCI tumour cell line growth inhibition, 48 h
Hi there, I'd appreciate the recorded TGI for every entry that follows.

COc1ccc(NC(=O)C(C#N)=C(SC)SC)cc1
> 100 µM
O=S1(=O)c2ccccc2N2C(c3ccccc3)=NOC2(c2ccccc2)CC1c1ccc(Br)cc1 (stereo not given)
> 100 µM
CC(=O)OCCCCN1C(=O)CSc2ccccc21
> 100 µM

Give me TGI for each of these molecules, listed below.
1. CCN1C(=O)N(CC)C2C1NN=c1s/c(=C\c3ccc(C(F)(F)F)cc3)c(=O)n12 (stereo not given)
2. NNc1nc2ccccc2o1
3. O=C1c2ccccc2C(=O)c2c1oc1c2c(=O)[nH]c2ccc(Cl)cc21
4. CC(ON1[C@](C)(c2ccccc2)CC[C@@]1(C)c1ccccc1)c1ccccc1 (stereo not given in full)
5. CN=C1CN=C(OP(=O)(N2CCOCC2)N2CCOCC2)c2cc(Cl)ccc2N1
6. CS(=O)(=O)NNS(=O)(=O)c1ccc(F)cc1
7. COc1ccc(-c2cc(-c3ccc(OC)cc3)nc(NCCCNc3ccnc4cc(Cl)ccc34)n2)cc1

1. > 62.3 µM
2. > 100 µM
3. 1.1 µM
4. > 100 µM
5. > 100 µM
6. > 100 µM
7. 3.56 µM

From: PubChem BioAssay (NCI)
